fold increase by entry:
- Protocol notes: enhancers of HSV replication in host cells, fold increase, host cell viability (AID 1956)
- Condition label: HSV replication augmentation in cells; measured here: primary screen fold increase 10 uM, at 10 µM, stronger effect = higher value
About 10 (0.005%) of roughly 220,000 compounds were called active. Not all results are given here.

[
  {
    "Molecule": "COC(C[C@@H](O)C[C@H](O)[C@H](C)OCc1ccccc1)OC",
    "Readout value": 0.91
  },
  {
    "Molecule": "COc1ccc2c(c1)CCNC2Cc1ccc(OC)c(O)c1 (centres undefined)",
    "Readout value": 0.84
  },
  {
    "Molecule": "O=[N+]([O-])C(=c1ccc2c(c1)N1C3=C(CCCC3)CC3CCCCC31N=2)[N+](=O)[O-] (centres undefined)",
    "Readout value": 1.07
  }
]

fold increase recorded for this molecule, COc1ccccc1C1=CC(=O)CCC1 , is 0.81

----------
- Protocol notes: enhancers of HSV replication in host cells, fold increase, host cell viability (AID 1956)
- Condition label: HSV replication augmentation in cells; measured here: primary screen fold increase 10 uM, at 10 µM, stronger effect = higher value
The campaign covered roughly 220,000 compounds. About 10 (0.005%) were called active. Not all results are given here.
Test readout: fold increase
Field format: numeric only.

Answered cases to consult:
[
  {
    "Molecule": "CN1CCc2nc(SC(C(=O)O)c3ccccc3)c(C#N)c(-c3cccs3)c2C1 (configuration not stated)",
    "fold increase": 0.99
  },
  {
    "Molecule": "COC(=O)c1cc(=O)n(-c2c(Cl)cc(C(F)(F)F)cc2Cl)[nH]1",
    "fold increase": 0.98
  },
  {
    "Molecule": "COc1ccccc1-n1cn[nH]c1=S",
    "fold increase": 0.88
  }
]

COc1ccc(CCN2C(=O)N(c3ccc(OC)cc3)C(=O)C2CC(=O)Nc2ccc(OC)cc2)cc1 (configuration not stated) yielded fold increase of 0.88

response.value for CC1CCN(Cc2nc(-c3ccc(Cl)cc3)no2)CC1 (field: fold increase) = 0.99

Consider Cc1ccc(/C=N/NC(=S)NC2CCCCC2)o1 . Its measured fold increase is 0.99

The measured fold increase associated with CNC(=S)NNC(=O)c1ccc(N(C)C)cc1 reads 1.02

Documented fold increase of Cc1nnc(SC(C(=O)c2ccccc2)c2ccccc2)[nH]c1=O (configuration not stated) : 0.88

In plain terms, COCCCn1c(-c2cccs2)nc2nc3ccccc3nc21 has a documented fold increase of 0.9

// COc1ccc(C#Cc2c(-c3ccc(OC)cc3)oc3ccc(-c4ccc5c(c4)OCO5)cc23)cc1 : fold increase value = 0.99

Sample C/C=C/C(=O)Nc1ccc(N2CCN(c3ccc(C(F)(F)F)cn3)CC2)nc1 ; fold increase observed: 0.88

Noted for COc1ccc(NC(=O)CSc2ncnc3[nH]ncc23)cc1 : its fold increase reads 1.02

----------
- Protocol notes: enhancers of HSV replication in host cells, fold increase, host cell viability (AID 1956)
- Condition label: HSV replication augmentation in cells; measured here: primary screen fold increase 10 uM, at 10 µM, stronger effect = higher value
The campaign covered roughly 220,000 compounds. About 10 (0.005%) were called active. Not all results are given here.
Attribute: fold increase
Give the value as a plain number.

Some molecules with recorded fold increase:
[
  {
    "Molecule": "CC1(C)C2CC[C@]3(C)C(CC=C4[C@@H]5C[C@@](C)(CO)CC[C@]5(C(=O)O)CC[C@]43C)[C@@]2(C)CC[C@@H]1O (some centres not stated)",
    "Readout value": 1.01
  },
  {
    "Molecule": "CC1(C)S[C@@H]2[C@H](NC(=O)COc3ccccc3)C(=O)N2C1C(=O)OCc1ccccc1 (some centres not stated)",
    "Readout value": 0.86
  },
  {
    "Molecule": "Cc1cc(C(=O)NNS(=O)(=O)c2ccccc2C(F)(F)F)nn1C(C)(C)C",
    "Readout value": 1
  }
]

Turning now to a further molecule:
Form: molecule = NS(=O)(=O)c1ccc(NC2=CC(c3ccc(F)cc3)N(c3ccc(S(N)(=O)=O)cc3)C2=O)cc1 (configuration not stated) ; fold increase = 1.05

----------
- Protocol notes: enhancers of HSV replication in host cells, fold increase, host cell viability (AID 1956)
- Condition label: HSV replication augmentation in cells; measured here: primary screen fold increase 10 uM, at 10 µM, stronger effect = higher value
In all, about 220,000 compounds went through this assay and about 10 (0.005%) were called active. A selection follows.
Test readout: fold increase
Give the value as a plain number.

Examples with their reported fold increase follow.
[
  {
    "Compound": "COc1ccc(CNC(=O)C2(CC3CC(c4ccccc4)=NO3)CCN(C(=O)c3cccc(O)c3)CC2)cc1 (stereo unspecified)",
    "fold increase": 0.88
  },
  {
    "Compound": "COc1ccc(/C=N/n2nnnc2N)cc1OC",
    "fold increase": 0.91
  },
  {
    "Compound": "COc1cccc(Nc2nnc(SCC(=O)N3CC(=O)Nc4ccccc43)s2)c1",
    "fold increase": 1
  },
  {
    "Compound": "Cc1nc(-c2ccccc2)sc1C1(C)CC(c2cccnc2)=NO1 (stereo unspecified)",
    "fold increase": 0.85
  }
]

The compound identified as COc1ccc(COCCN2CCN(S(=O)(=O)c3ccccc3)CCC2=O)cc1 registered its fold increase at 0.895

get_value(item= Cc1cc(Cl)ccc1NNC(=O)c1snnc1C , readout=fold increase) returns 1.06

----------
- Protocol notes: enhancers of HSV replication in host cells, fold increase, host cell viability (AID 1956)
- Condition label: HSV replication augmentation in cells; measured here: primary screen fold increase 10 uM, at 10 µM, stronger effect = higher value
The whole screen tested about 220,000 compounds, of which about 10 (0.005%) were called active. The list is a sample of the results.
Label Condition met when fold increase is at or above 1; anything below gets Condition not met.

[
  {
    "Molecule": "COc1ccc(CNC(=O)C2CC(c3ccc(C(F)(F)F)cc3)=NO2)cc1 (stereo not drawn)",
    "Assigned class": "Condition not met"
  },
  {
    "Molecule": "CCCC[C@@H]1CN=C(N)N1CCCC",
    "Assigned class": "Condition met"
  }
]

Problem: Could you verify whether the entry CCCCN1C(N)=NC[C@@H]1Cc1ccccc1 shows fold increase of no less than 1?
Solution: Condition not met

Problem: Is it the case that CCOC(=O)c1ccc(NC(=O)c2c(N)n(C)c(=O)[nH]c2=O)cc1 has fold increase reaching or exceeding 1?
Solution: Condition not met

Problem: I'd appreciate it if you could say whether CC(C)c1ccc(NC(=S)NC2CC3C=CC2C3)cc1 (stereo not drawn) has fold increase at least equal to 1.
Solution: Condition not met

----------
- Protocol notes: enhancers of HSV replication in host cells, fold increase, host cell viability (AID 1956)
- Condition label: HSV replication augmentation in cells; measured here: primary screen fold increase 10 uM, at 10 µM, stronger effect = higher value
In all, about 220,000 compounds went through this assay and about 10 (0.005%) were called active. A selection follows.
Recorded measurements of fold increase, one per entry

According to the records, this compound N/C(=N\OC(=O)CCn1cccc(C(F)(F)F)c1=O)c1ccc(OC(F)(F)F)cc1 displays fold increase of 0.99

CCC(C)N1C(=S)SC(C)(C)C1N(O)C(=O)NC1CCCCC1 (stereo not drawn) yielded fold increase of 0.99

Given item Cc1cc(C)nc(NC(=O)/C=C/c2ccc(Cl)cc2)n1 , the value recorded as its fold increase is 0.99

Data credit: PubChem BioAssay AID1956
